# Test system: Lefty1
# procedure summary: Lefty1 protein binding to printed compounds – biochemical, small-molecule microarray, 635/667 nm fluorescence, primary screen (AID 1139)
# experimental conditions: fluorescence 635/667, higher = more signal
Listed next: entries and their corresponding composite z-score.
Give the figure by itself; no unit, no explanation.

Solved cases (10 shown):
>  <compound>
C=C(/C(=C/C[C@H](OC(=O)c1ccncc1)c1ccc(CO)o1)c1cnc2ccccc2c1)C(C)C

>  <system under test>
Lefty1

>  <composite z-score>
1.34

$$$$
>  <compound>
CCCCNC(=O)c1ccc(C#CC(C)(C)C)c(OC(C)=O)c1

>  <system under test>
Lefty1

>  <composite z-score>
0.777

$$$$
>  <compound>
COc1cc2c(cc1O)C(c1ccc(CN3CCCC3)cc1)N(Cc1cc3c(cc1Br)OCO3)CC2 (stereo not drawn)

>  <system under test>
Lefty1

>  <composite z-score>
-0.268

$$$$
>  <compound>
Cc1ccc(S[C@]2(C(=O)NCCN3CCOCC3)CC(=O)N(Cc3ccccc3Cl)[C@@H]2c2ccc(CO)cc2I)cc1

>  <system under test>
Lefty1

>  <composite z-score>
-1.57

$$$$
>  <compound>
CCCCC(CC)C(O)C1C=CC2C(=O)N(c3ccccc3)C(=O)C2N1Nc1ccccc1F (stereo not drawn)

>  <system under test>
Lefty1

>  <composite z-score>
0.276

$$$$
>  <compound>
COc1ccc(CCNC(=O)[C@@]2(c3ccc([N+](=O)[O-])cc3)CC(=O)N(C3CCCCC3)[C@@H]2c2ccc(CO)cc2)cc1

>  <system under test>
Lefty1

>  <composite z-score>
-0.381

$$$$
>  <compound>
COCCOC(=O)N1C(=O)[C@@]2(c3cc(C#CCNC(N)=O)ccc31)[C@H](C(N)=O)[C@H]1C(=O)O[C@H](c3ccccc3)[C@H](c3ccccc3)N1[C@@H]2c1ccccc1OCCO

>  <system under test>
Lefty1

>  <composite z-score>
0.684

$$$$
>  <compound>
Cc1cc(C)c(C(O)C2C=CC3C(=O)N(c4ccccc4)C(=O)C3N2Nc2ccccc2F)c(C)c1 (stereo not drawn)

>  <system under test>
Lefty1

>  <composite z-score>
-0.589

$$$$
>  <compound>
CC1CC/C=C\[C@H]2OC34C=CCN(C(C)C)C(=O)[C@H]3N(CCO)C(=O)[C@@H]4C2C(=O)O1 (stereo partly drawn)

>  <system under test>
Lefty1

>  <composite z-score>
-0.445

$$$$
>  <compound>
O=C(NCCN1CCOCC1)[C@@H]1c2ccccc2C(=O)N(C2Cc3ccccc3C2)[C@H]1c1ccc(CO)cc1

>  <system under test>
Lefty1

>  <composite z-score>
-0.724

$$$$

Field request: composite z-score | item: COc1cc(NN2C(C(O)c3ccc(N(C)C)cc3)C=CC3C(=O)N(c4ccccc4)C(=O)C32)cc(OC)c1OC (stereo not drawn) 0.0646

I would be grateful if you could share the reported composite z-score for `COc1ccc(CCNC(=O)[C@@H]2c3ccccc3C(=O)N(C3CCCCC3)[C@H]2c2ccc(CO)cc2)cc1` . -0.359

Given the entry `CCOC(=O)C[C@H]1[C@H](OC(=O)c2ccccc2-c2ccccc2)[C@@H](NC(=O)c2ccc3ccccc3c2)c2cc(OCCCO)ccc2N1C(=O)c1ccccc1` , report its measured composite z-score. 0.868

Given the entry `NC(=O)NCC#Cc1ccc2c(c1)[C@]1(C(=O)N2)[C@H](c2ccccc2OCCO)N2[C@H](c3ccccc3)[C@H](c3ccccc3)OC(=O)[C@H]2[C@@H]1C(=O)NC[C@H](O)c1ccccc1` , report its measured composite z-score. -0.0823

I have this compound here, `CCOC(=O)C[C@H]1[C@H](OC(=O)c2ccc(C(=O)c3ccccc3)cc2)[C@@H](NC(=O)c2ccc(-c3ccccc3)cc2)c2cc(OCCCO)ccc2N1C(=O)Cc1ccc(OC)cc1` , and I need its recorded composite z-score. 0.374

I would be grateful if you could share the reported composite z-score for `CN(C)C(=O)[C@@]1(Cc2ccccc2)N=C(c2ccc(OCCCO)cc2)O[C@H]1c1ccccc1` . -0.557

For the compound C=CCC(OC(C)=O)[C@@H]1[C@@H](N(Cc2ccc(-c3ccccc3)cc2)C(=O)c2ccc(-c3ccccc3)cc2)c2cc(OCCCO)ccc2N1C(=O)c1ccc2ccccc2c1 (stereo partly drawn) , what composite z-score is on record? 0.476
